# credit: ChEMBL document CHEMBL1136768

Test system: MEF
Test: Cytotoxicity in uninfected MEF cells
Format: functional
Conditions: Mus musculus
VALUE_TYPE: CC50 (µM)

                               line_notation  scale_unit  qual  numeric_value
 0    CCCCCSc1nc(N)nc2c1ncn2/C=C1/C[C@@H]1CO          µM     =            171
 1      CCCOc1nc(N)nc2c1ncn2/C=C1/C[C@@H]1CO          µM     =            363
 2     C#CCNc1nc(N)nc2c1ncn2/C=C1/C[C@@H]1CO          µM     >            370
 3     C=CCNc1nc(N)nc2c1ncn2/C=C1/C[C@@H]1CO          µM     >            368
 4     C=CCOc1nc(N)nc2c1ncn2/C=C1/C[C@@H]1CO          µM     >            366
 5  Nc1nc(NCC2CC2)c2ncn(/C=C3/C[C@@H]3CO)c2n1          µM     =            279
 6    Nc1nc(NCCO)c2ncn(/C=C3/C[C@@H]3CO)c2n1          µM     >            362
 7    CCCCCOc1nc(N)nc2c1ncn2/C=C1/C[C@@H]1CO          µM     =            224
 8        COc1nc(N)nc2c1ncn2/C=C1/C[C@@H]1CO          µM     =            351
 9  Nc1nc(NCc2ccccc2)c2ncn(/C=C3/C[C@@H]3CO)c2n1          µM     =             25
10      CCCSc1nc(N)nc2c1ncn2/C=C1/C[C@@H]1CO          µM     =            343
11       Nc1nc(O)c2ncn(/C=C3/C[C@@H]3CO)c2n1          µM     >            429
12  Nc1nc(NC2CC2)c2ncn(/C=C3/C[C@@H]3CO)c2n1          µM     =            367
13       Nc1nc(S)c2ncn(/C=C3/C[C@@H]3CO)c2n1          µM     =             64
14  Nc1nc(OCC2CC2)c2ncn(/C=C3/C[C@@H]3CO)c2n1          µM     =            278
